These entries and their values trace back to patent USRE47739E1.

Target of assay: Cdk2/Cyclin A (Homo sapiens, UniProt P24941)
Method description: Assay for Inhibition of Cdk2/Cyclin A
Measurement parameters: 12 mM ATP (so in the source), retinoblastoma protein substrate, 25° C., 15 minutes
pIC50: −log10 of the molar value. Structures can show the parent of a compound that is named as a salt.
Property label: pIC50

Use the examples below as a reference point.
Molecule	Number
O=c1ccc2cnc(Nc3ccc(N4CCNCC4)cn3)nc2n1C1CCCCC1	6.08
O=c1ccc2cnc(Nc3ccc(N4CCNCC4)cn3)nc2n1C1CCCC1	5.60
Cc1cc2cnc(Nc3ccc(N4CCNCC4)cn3)nc2n(C2CCCC2)c1=O [Example 20, hydrochloride]	5.39
Nc1cccc(Nc2ncc3cc(Br)c(=O)n(C4CCCC4)c3n2)n1	5.48
O=c1c(Br)cc2cnc(Nc3ccc(N4CCNCC4)cn3)nc2n1C1CCCC1 [Example 3, hydrochloride]	5.22

(a) O=c1ccc2cnc(Nc3ccccn3)nc2n1C1CCCC1
(b) O=c1ccc2cnc(Nc3ccccc3)nc2n1C1CCCC1 [1′, reference compound]
Query block: I'm curious, which of these has a smaller pIC50 number: a or b ? Please respond with the label that marks your chosen entry.
Result block: a

---

Target of assay: FGF receptor (FGFr) tyrosine kinase (Homo sapiens, UniProt P11362)
Sequence (P11362 22-822): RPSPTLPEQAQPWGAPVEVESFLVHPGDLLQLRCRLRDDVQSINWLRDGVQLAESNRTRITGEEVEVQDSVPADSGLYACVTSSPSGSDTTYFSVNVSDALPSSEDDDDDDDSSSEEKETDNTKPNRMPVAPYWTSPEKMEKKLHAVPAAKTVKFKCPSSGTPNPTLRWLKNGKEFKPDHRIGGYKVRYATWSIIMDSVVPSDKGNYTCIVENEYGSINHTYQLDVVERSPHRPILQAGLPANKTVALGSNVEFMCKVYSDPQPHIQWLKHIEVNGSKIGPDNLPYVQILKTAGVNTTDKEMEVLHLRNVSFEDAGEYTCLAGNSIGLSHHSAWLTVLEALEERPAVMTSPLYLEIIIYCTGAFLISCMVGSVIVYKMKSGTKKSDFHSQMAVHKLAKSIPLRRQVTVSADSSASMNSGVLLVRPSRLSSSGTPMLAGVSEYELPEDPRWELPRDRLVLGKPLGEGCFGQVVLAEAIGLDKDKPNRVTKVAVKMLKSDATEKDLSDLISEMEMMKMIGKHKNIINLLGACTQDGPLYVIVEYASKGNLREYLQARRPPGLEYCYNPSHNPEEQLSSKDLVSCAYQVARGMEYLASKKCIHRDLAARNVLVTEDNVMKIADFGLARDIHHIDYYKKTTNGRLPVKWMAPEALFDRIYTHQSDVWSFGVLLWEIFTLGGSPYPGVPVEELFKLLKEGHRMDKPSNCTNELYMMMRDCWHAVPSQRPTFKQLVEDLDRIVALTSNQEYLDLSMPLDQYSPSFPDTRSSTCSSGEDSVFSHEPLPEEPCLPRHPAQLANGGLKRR
Counter-ions that a name gives are not always drawn.
Property label: IC50 (nM)
Numeric answer only, unit nM assumed.

Compound	Target of assay	Number
O=c1ccc2cnc(Nc3ccc(N4CCNCC4)cn3)nc2n1C1CCCCC1	FGF receptor (FGFr) tyrosine kinase (Homo sapiens, UniProt P11362)	1380

Next compound, please.
Record Cc1cc2cnc(Nc3ccc(N4CCNCC4)cn3)nc2n(C2CCCC2)c1=O [Example 20, hydrochloride] / FGF receptor (FGFr) tyrosine kinase (Homo sapiens, UniProt P11362), IC50 recorded as 1600

---

Target of assay: Cdk4/Cyclin D (Homo sapiens)
Sequence (P11802 whole entry, species assumed): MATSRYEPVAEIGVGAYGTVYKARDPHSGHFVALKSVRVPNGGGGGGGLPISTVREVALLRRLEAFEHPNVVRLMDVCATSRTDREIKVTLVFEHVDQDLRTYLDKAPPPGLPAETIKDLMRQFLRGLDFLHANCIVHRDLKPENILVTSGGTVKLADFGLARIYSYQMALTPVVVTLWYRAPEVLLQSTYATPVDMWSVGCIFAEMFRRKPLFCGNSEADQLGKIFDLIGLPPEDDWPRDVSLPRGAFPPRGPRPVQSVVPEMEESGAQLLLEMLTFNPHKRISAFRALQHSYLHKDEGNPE
Sequence (P24385 whole entry partner, species assumed): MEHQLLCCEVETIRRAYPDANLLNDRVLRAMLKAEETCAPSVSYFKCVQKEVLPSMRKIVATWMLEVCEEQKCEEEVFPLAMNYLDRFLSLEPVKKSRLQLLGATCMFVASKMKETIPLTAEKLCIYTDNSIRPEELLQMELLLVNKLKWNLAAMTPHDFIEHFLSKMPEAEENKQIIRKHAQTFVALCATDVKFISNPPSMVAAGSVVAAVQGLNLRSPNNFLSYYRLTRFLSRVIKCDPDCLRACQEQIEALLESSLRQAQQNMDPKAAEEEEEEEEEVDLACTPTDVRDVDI
Method description: Assay for Inhibition of Cdk4/Cyclin D
Measurement parameters: 25 μM ATP, retinoblastoma protein substrate, 25° C., 15 minutes
Property label: IC50 (nM)

Molecule	Target of assay	IC50, nM
Cc1cc(=O)n(C2CCCC2)c2nc(Nc3ccc(N4CCNCC4)cn3)ncc12	Cdk4/Cyclin D (Homo sapiens)	580

(a) CC(=O)c1c(C)c2cnc(Nc3ccc(N4CCC(N)C4)cn3)nc2n(C2CCCC2)c1=O (stereo not shown)
(b) CC(=O)c1c(C)c2cnc(Nc3ccc(N4CC(C)NC(C)C4)cn3)nc2n(C2CCCC2)c1=O (stereo not shown)
(c) Cc1c(Br)c(=O)n(C2CCCC2)c2nc(Nc3cccc(N)n3)ncc12
Query block: Sort by IC50, descending. The response must list the labels following the requested ordering.
Result block: c, b, a
(c: 763 nM, b: 37 nM, a: 14 nM)

---

Target of assay: Cdk4/Cyclin D (Homo sapiens)
Method description: Assay for Inhibition of Cdk4/Cyclin D
Measurement parameters: 25 μM ATP, retinoblastoma protein substrate, 25° C., 15 minutes
pIC50: −log10 of the molar value. Counter-ions that a name gives are not always drawn.
Property label: pIC50

Use the examples below as a reference point.
Compound	Target of assay	Number
O=c1c(F)cc2cnc(Nc3ccc(N4CCNCC4)cn3)nc2n1C1CCCC1 [Example 18, hydrochloride]	Cdk4/Cyclin D (Homo sapiens)	7.29
CC(=O)c1c(C)c2cnc(Nc3ccc(N4CCCNCC4)cn3)nc2n(C2CCCC2)c1=O	Cdk4/Cyclin D (Homo sapiens)	7.92
NC(=O)c1ccc(Nc2ncc3cc(Br)c(=O)n(C4CCCC4)c3n2)nc1	Cdk4/Cyclin D (Homo sapiens)	6.59
CCOCCOc1cc2cnc(Nc3ccc(N4CCNCC4)cn3)nc2n(C2CCCC2)c1=O	Cdk4/Cyclin D (Homo sapiens)	7.44
O=c1ccc2cnc(Nc3ccccn3)nc2n1C1CCCC1	Cdk4/Cyclin D (Homo sapiens)	6.84
CCOCc1cc2cnc(Nc3ccc(N4CCNCC4)cn3)nc2n(C2CCCC2)c1=O	Cdk4/Cyclin D (Homo sapiens)	7.74

(a) O=c1c(Br)cc2cnc(Nc3ccccn3)nc2n1C1CCCC1
(b) CC(=O)c1c(C)c2cnc(Nc3ccc(N4CCCCC4)cn3)nc2n(C2CCCC2)c1=O
Query block: I'm curious, which of these has a smaller pIC50 number: a or b ? Please respond with the label that marks your chosen entry.
Result block: a
(a: 6.02, b: 8.30)
